- measured.on: Concanavalin-A (Canavalia ensiformis) (UniProt P02866)
- Sequence (P02866 whole entry, looked up): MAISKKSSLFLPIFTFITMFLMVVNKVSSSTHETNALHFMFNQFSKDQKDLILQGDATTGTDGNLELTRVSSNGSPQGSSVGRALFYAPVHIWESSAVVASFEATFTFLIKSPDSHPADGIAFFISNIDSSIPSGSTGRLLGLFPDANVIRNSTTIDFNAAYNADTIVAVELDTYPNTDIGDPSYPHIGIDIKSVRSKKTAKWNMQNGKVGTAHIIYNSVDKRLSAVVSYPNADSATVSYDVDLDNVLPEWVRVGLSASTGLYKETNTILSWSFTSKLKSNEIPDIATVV
- experiment.description: compounds binding concanavalin A lectin – biochemical, small-molecule microarray, Alexa647 label, 635 nm, artefact control for SMM control protein annotation, primary screen (AID 1127);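 note: z combines 667 nm emission intensity with signal-to-noise across three replicate slides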
- assay.context: ConA-A647 binding fluorescence, higher = more signal
Readings of composite z-score for the listed compounds
assay.endpoint: composite z-score

[[record]]
compound = "CCOC(=O)C[C@H]1[C@H](OC(=O)Cc2ccc3c(c2)OCO3)[C@@H](NC(=O)C2CCCCC2)c2cc(OCCCO)ccc2N1C(=O)c1ccccc1"
observed_result = 0.833

[[record]]
compound = "CCOC(=O)C1=C[C@@H](C(C)C)N(S(=O)(=O)c2ccc(C)cc2)[C@H]1c1ccc(C(F)(F)F)cc1"
observed_result = 1.05

[[record]]
compound = "C=CCC(OC(C)=O)[C@@H]1[C@@H](N(Cc2cc3ccccc3o2)C(=O)Cc2ccc(F)cc2)c2cc(OCCCO)ccc2N1C(=O)Cc1ccc2ccccc2c1 (stereo partly specified)"
observed_result = 0.296

[[record]]
compound = "COc1cc2c(cc1O)C(c1ccc(CN3CCCC3)cc1)N(Cc1cc3c(cc1Br)OCO3)CC2 (stereo unspecified)"
observed_result = 0.655

[[record]]
compound = "COC(=O)[C@@]1(Cc2ccc(OC)cc2)[C@H]2c3cc(C(=O)N(C)C)n(Cc4ccc(C)o4)c3C[C@H]2CN1C(=O)c1ccccc1"
observed_result = 0.842

[[record]]
compound = "[N-]=[N+]=Nc1ccccc1C[C@]1(C(=O)N2CCOCC2)COC(c2ccc(OCCCO)cc2)=N1"
observed_result = 0.99

[[record]]
compound = "CCCCN1CC=CC23O[C@@H]4/C=C\\CCCOC(=O)C4[C@H]2C(=O)N(CCO)[C@@H]3C1=O (stereo partly specified)"
observed_result = -0.557

[[record]]
compound = "O=C1O[C@H](c2ccccc2)[C@H](c2ccccc2)N2[C@H]1[C@@H](C(=O)O)[C@]1(C(=O)Nc3ccc(C#CCCO)cc31)[C@H]2c1ccccc1OCCO"
observed_result = 0.991

[[record]]
compound = "COC(=O)[C@@H]1N=C(c2ccc(OCCCO)cc2)O[C@@H]1C"
observed_result = 0.0255

[[record]]
compound = "COC(=O)[C@@H]1N=C(c2ccc(OCCCO)cc2)O[C@@H]1c1ccccc1"
observed_result = -0.324

[[record]]
compound = "C=C(COC)/C(=C/C[C@H](OC(=O)c1ccncc1)c1ccccc1OCCO)c1cc(C(=O)OC)ccc1OC"
observed_result = 0.784

[[record]]
compound = "C=CC[C@]1(C(=O)N2CCCCC2)N=C(c2ccc(OCCCO)cc2)O[C@H]1c1ccccc1CN=[N+]=[N-]"
observed_result = 1.1

[[record]]
compound = "COC(=O)[C@@]1(Cc2ccc(F)cc2)[C@H]2c3cc(C(=O)N(C)C)n(CCc4ccc(OC)c(Br)c4)c3C[C@H]2CN1C(=O)c1ccccc1"
observed_result = 0.793

[[record]]
compound = "COc1cc2c(cc1O)C(c1cccs1)N(Cc1cc3c(cc1Br)OCO3)CC2 (stereo unspecified)"
observed_result = 1.12

[[record]]
compound = "C#Cc1cc2ccccc2oc1=O"
observed_result = -0.486

[[record]]
compound = "CCOC(=O)C[C@H]1[C@H](OC(=O)c2ccc(C(=O)c3ccccc3)cc2)[C@@H](NC(=O)C2CCCCC2)c2cc(OCCCO)ccc2N1C(=O)c1ccc2ccccc2n1"
observed_result = 0.955

[[record]]
compound = "C=CC[C@@H](OC(=O)Nc1ccc(SC)cc1)c1ccc(O)c(F)c1"
observed_result = -0.0538

[[record]]
compound = "C[N+](C)(C)CCCCCCNC(=O)[C@@H]1C[C@@H]2C(=O)N3CCC[C@H]3C(=O)N2[C@@H]1c1ccc(O)cc1"
observed_result = 0.818

[[record]]
compound = "CCCCC=C[C@@H](NC(=O)OCc1ccccc1Cl)c1ccccc1"
observed_result = 1.13

[[record]]
compound = "COCCOC(=O)N1C(=O)[C@@]2(c3cc(C#CCNC(N)=O)ccc31)[C@H](C(N)=O)[C@H]1C(=O)O[C@H](c3ccccc3)[C@H](c3ccccc3)N1[C@@H]2c1ccccc1OCCO"
observed_result = 1.06

[[record]]
compound = "CC1CC/C=C\\[C@H]2OC34C=CCN(c5ccc6ccccc6c5)C(=O)[C@H]3N(CCCO)C(=O)[C@@H]4C2C(=O)O1 (stereo partly specified)"
observed_result = -0.71

